# STUDY_TARGET: Nuclear factor NF-kappa-B complex (Homo sapiens) (UniProt Q00653+P19838+Q04206)
# Sequence (P19838 whole entry, looked up): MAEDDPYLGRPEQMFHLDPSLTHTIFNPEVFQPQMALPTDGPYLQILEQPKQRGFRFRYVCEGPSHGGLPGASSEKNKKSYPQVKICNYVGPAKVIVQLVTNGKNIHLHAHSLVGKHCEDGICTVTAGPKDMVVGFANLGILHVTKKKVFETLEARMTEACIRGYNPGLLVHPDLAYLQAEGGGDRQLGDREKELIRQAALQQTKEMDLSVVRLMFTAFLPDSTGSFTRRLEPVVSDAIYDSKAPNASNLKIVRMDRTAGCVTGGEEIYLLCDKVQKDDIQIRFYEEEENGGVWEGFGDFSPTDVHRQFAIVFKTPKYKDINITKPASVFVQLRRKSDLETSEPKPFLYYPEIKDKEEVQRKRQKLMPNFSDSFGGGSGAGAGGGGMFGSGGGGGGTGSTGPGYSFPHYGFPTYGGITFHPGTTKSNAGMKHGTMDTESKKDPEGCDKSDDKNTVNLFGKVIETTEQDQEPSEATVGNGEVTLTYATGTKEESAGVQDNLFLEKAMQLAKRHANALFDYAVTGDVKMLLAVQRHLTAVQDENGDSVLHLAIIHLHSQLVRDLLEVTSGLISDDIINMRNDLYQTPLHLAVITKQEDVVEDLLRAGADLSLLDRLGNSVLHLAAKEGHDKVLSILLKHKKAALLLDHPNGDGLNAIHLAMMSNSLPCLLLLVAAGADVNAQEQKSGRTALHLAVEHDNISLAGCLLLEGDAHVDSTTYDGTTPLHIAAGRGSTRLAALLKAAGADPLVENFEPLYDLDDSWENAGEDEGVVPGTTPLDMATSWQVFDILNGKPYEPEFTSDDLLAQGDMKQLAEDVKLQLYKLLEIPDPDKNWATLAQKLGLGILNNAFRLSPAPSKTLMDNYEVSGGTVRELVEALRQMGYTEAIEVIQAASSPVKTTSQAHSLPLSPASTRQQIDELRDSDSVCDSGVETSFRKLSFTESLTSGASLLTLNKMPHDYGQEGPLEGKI
# Sequence (Q00653 whole entry, looked up): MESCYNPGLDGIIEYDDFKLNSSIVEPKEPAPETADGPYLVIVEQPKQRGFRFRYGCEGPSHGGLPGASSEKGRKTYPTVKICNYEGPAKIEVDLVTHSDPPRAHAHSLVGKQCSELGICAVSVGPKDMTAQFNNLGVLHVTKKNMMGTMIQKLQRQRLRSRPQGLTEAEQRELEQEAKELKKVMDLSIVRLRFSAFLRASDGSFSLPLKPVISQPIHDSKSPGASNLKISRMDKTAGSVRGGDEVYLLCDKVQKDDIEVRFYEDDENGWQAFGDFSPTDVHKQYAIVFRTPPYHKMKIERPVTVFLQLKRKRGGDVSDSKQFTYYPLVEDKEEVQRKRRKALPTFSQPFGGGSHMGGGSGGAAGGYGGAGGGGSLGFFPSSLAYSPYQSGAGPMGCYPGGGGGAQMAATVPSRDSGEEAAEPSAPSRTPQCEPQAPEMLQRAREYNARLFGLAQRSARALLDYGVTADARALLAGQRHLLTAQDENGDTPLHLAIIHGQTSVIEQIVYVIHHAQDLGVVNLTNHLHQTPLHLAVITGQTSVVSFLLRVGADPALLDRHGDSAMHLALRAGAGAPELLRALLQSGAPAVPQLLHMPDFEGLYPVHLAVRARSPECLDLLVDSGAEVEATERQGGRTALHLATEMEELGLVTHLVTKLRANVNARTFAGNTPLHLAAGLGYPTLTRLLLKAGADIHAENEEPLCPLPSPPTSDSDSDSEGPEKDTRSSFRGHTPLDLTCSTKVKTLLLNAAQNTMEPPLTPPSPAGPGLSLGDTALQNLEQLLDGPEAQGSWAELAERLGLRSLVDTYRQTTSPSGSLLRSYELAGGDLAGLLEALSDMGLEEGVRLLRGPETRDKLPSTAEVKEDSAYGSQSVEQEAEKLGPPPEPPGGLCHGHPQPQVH
# Sequence (Q04206 whole entry, looked up): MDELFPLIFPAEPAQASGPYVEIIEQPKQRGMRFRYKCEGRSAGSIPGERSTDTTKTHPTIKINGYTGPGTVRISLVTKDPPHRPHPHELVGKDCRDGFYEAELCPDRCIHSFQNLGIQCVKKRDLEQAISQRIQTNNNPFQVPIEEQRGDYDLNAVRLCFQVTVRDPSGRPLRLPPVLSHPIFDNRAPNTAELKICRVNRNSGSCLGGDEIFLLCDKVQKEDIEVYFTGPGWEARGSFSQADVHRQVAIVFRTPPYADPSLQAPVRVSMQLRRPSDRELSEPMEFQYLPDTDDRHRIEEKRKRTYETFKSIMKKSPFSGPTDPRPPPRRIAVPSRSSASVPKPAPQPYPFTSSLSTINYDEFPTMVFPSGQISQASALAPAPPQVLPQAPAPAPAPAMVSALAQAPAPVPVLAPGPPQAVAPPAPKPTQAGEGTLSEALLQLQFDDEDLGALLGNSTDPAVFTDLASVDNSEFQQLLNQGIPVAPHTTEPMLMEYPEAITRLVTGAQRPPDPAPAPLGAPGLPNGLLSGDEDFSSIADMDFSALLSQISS
# ASSAY_NOTES: Inhibition of LPS-induced NF-kappaB (unknown origin) expressed in HEK293 cells at 1 ug/ml after 4 hrs by luciferase reporter gene assay relative to LPS-treated control
# Type: cell-based
MEASURED_PROPERTY: Ratio
One number for each entry.

Inquiry: Provide only the value of recorded Ratio for COC(=O)[C@H](O)[C@H]1[C@]2(C)C[C@]3(O)[C@@](O)([C@@H](OC(=O)C(C)C)[C@]45OC6(C)O[C@H]([C@H](OC(C)=O)[C@]78C[C@@]74[C@@H](OC(C)=O)C(=O)O[C@H]8c4ccoc4)[C@]5(O6)[C@]13C)[C@H]2OC(C)=O
Reply text: 0.22

Inquiry: Provide only the value of recorded Ratio for CC(=O)O[C@@H]1[C@H](OC(C)=O)[C@@](C)([C@@H](OC(C)=O)c2ccoc2)[C@H]2CC3(C(C)C)O[C@@H]4[C@@]5(OC(C)=O)[C@@H](OC(C)=O)[C@@]6(C)C[C@@]5(O)[C@]5(COC(=O)C[C@@H]65)[C@]1(O)[C@@]24O3
Reply text: 0.17

Inquiry: Provide only the value of recorded Ratio for COC(=O)[C@H](O)[C@H]1[C@]2(C)C[C@]3(O)[C@@](O)([C@H]4OC5(C)C[C@@H]6[C@](C)([C@@H](OC(C)=O)c7ccoc7)[C@@H](OC(C)=O)[C@@H](OC(C)=O)[C@@](O)([C@@]64O5)[C@]13C)[C@H]2O
Reply text: 0.33

***
Inquiry: Provide only the value of recorded Ratio for CCC12C[C@@H]3[C@](C)([C@@H](OC(C)=O)c4ccoc4)[C@@H](OC(C)=O)[C@@H](OC(C)=O)[C@@]4(O)[C@]3(O1)[C@H](O2)[C@@]1(OC(C)=O)[C@@H](OC(C)=O)[C@@]2(C)C[C@@]1(O)[C@@]4(COC(C)=O)[C@H]2CC(=O)OC
Reply text: 0.36

---

# STUDY_TARGET: Nuclear factor NF-kappa-B complex (Homo sapiens) (UniProt Q00653+P19838+Q04206)
# ASSAY_NOTES: Inhibition of LPS-induced NF-kappaB (unknown origin) expressed in HEK293 cells at 100 ug/ml after 4 hrs by luciferase reporter gene assay relative to LPS-treated control
# Format: cell-based
MEASURED_PROPERTY: Ratio
Numbers only.

Here's what some known entries look like.
Inquiry: Provide only the value of recorded Ratio for COC(=O)C[C@H]1[C@]2(C)C[C@]3(O)[C@@](OC(C)=O)([C@H]4OC5(C)C[C@@H]6[C@](C)([C@@H](OC(C)=O)c7ccoc7)[C@@H](OC(C)=O)[C@@H](OC(C)=O)[C@@](O)([C@@]64O5)[C@]13C)[C@H]2OC(C)=O
Reply text: 0.32

Inquiry: Provide only the value of recorded Ratio for CC(=O)O[C@@H]1[C@H](OC(C)=O)[C@@](C)([C@@H](OC(C)=O)c2ccoc2)[C@H]2CC3(C)O[C@@H]4[C@@]5(OC(C)=O)[C@@H](OC(C)=O)[C@@]6(C)C[C@@]5(O)[C@]5(COC(=O)C[C@@H]65)[C@]1(O)[C@@]24O3
Reply text: 0.42

Inquiry: Provide only the value of recorded Ratio for CC/C(O)=C1/C(=O)O[C@@H]2[C@@]3(O)[C@@H](OC(C)=O)[C@@]4(C)C[C@]35OC3(C)O[C@]26[C@H]1[C@](C)([C@@H](OC(C)=O)c1ccoc1)[C@@H](OC(C)=O)[C@@H](O)[C@]6(O3)[C@]5(COC(C)=O)[C@H]4CC(=O)OC
Reply text: 0.35

Inquiry: Provide only the value of recorded Ratio for CC/C(O)=C1/C(=O)O[C@@H]2[C@@]3(OC(C)=O)[C@@H](OC(C)=O)[C@@]4(C)C[C@]35OC3(C)O[C@]26[C@H]1[C@](C)([C@@H](OC(C)=O)c1ccoc1)[C@@H](OC(C)=O)[C@@H](O)[C@]6(O3)[C@]5(COC(C)=O)[C@H]4CC(=O)OC
Reply text: 0.45

***
Inquiry: Provide only the value of recorded Ratio for COC(=O)[C@H](O)[C@H]1[C@]2(C)C[C@]3(O)[C@@](O)([C@H]4OC5(C)C[C@@H]6[C@](C)([C@@H](OC(C)=O)c7ccoc7)[C@@H](OC(C)=O)[C@@H](OC(C)=O)[C@@](O)([C@@]64O5)[C@]13C)[C@H]2O
Reply text: 0.56

---

# STUDY_TARGET: Nuclear factor NF-kappa-B complex (Homo sapiens) (UniProt Q00653+P19838+Q04206)
# ASSAY_NOTES: Inhibition of LPS-induced NF-kappaB (unknown origin) expressed in HEK293 cells at 100 ug/ml after 4 hrs by luciferase reporter gene assay relative to LPS-treated control
# Type: cell-based
Exercise: state measured Ratio for each of the compounds provided.

Here's what some known entries look like.
Inquiry: Provide only the value of recorded Ratio for CCC12C[C@@H]3[C@](C)([C@@H](OC(C)=O)c4ccoc4)[C@@H](OC(C)=O)[C@@H](OC(C)=O)[C@@]4(O)[C@]3(O1)[C@H](O2)[C@@]1(OC(C)=O)[C@@H](OC(C)=O)[C@@]2(C)C[C@@]1(O)[C@]41COC(=O)C[C@@H]21
Reply text: 0.31

Inquiry: Provide only the value of recorded Ratio for CCC(=O)O[C@@H]1[C@@]2(O)[C@@H](OC(C)=O)[C@@]3(C)C[C@]24OC2(C)O[C@]15[C@@H]1CC(=O)O[C@@H](c6ccoc6)[C@]1(C)[C@@H](OC(C)=O)[C@@H](O)[C@]5(O2)[C@]4(COC(C)=O)[C@H]3CC(=O)OC
Reply text: 0.32

Inquiry: Provide only the value of recorded Ratio for CCC12C[C@@H]3[C@](C)([C@@H](OC(C)=O)c4ccoc4)[C@@H](O)[C@@H](OC(C)=O)[C@@]4(O)[C@]3(O1)[C@H](O2)[C@@]1(OC(C)=O)[C@@H](O)[C@@]2(C)C[C@@]1(O)[C@@]4(C)[C@H]2[C@@H](O)C(=O)OC
Reply text: 0.3

***
Inquiry: Provide only the value of recorded Ratio for COC(=O)[C@H](OC(C)=O)[C@H]1[C@]2(C)C[C@]3(O)[C@@](O)([C@H]4OC(=O)[C@@H]5O[C@@H](c6ccoc6)[C@@]67C[C@@]56[C@]4(O)[C@](O)([C@H](OC(=O)C(C)C)[C@@H]7OC(C)=O)[C@]13C)[C@H]2OC(C)=O
Reply text: 0.3

---

# STUDY_TARGET: Nuclear factor NF-kappa-B complex (Homo sapiens) (UniProt Q00653+P19838+Q04206)
# ASSAY_NOTES: Inhibition of LPS-induced NF-kappaB (unknown origin) expressed in HEK293 cells at 100 ug/ml after 4 hrs by luciferase reporter gene assay relative to LPS-treated control
# Assay type: cell-based
MEASURED_PROPERTY: Ratio
One number for each entry.

Here's what some known entries look like.
Inquiry: Provide only the value of recorded Ratio for C[C@]12CCC(=O)C=C1CC[C@@H]1[C@@H]2[C@@H](O)C[C@@]2(C)[C@H]1CC[C@]2(O)C(=O)CO
Reply text: 0.6

Inquiry: Provide only the value of recorded Ratio for CC/C(O)=C1/C(=O)O[C@@H]2[C@@]3(O)[C@@H](OC(C)=O)[C@@]4(C)C[C@]35OC3(C)O[C@]26[C@H]1[C@](C)([C@@H](OC(C)=O)c1ccoc1)[C@@H](OC(=O)C(C)C)[C@@H](OC(=O)C(C)C)[C@]6(O3)[C@@]51COC(=O)C[C@@H]41
Reply text: 0.29

Inquiry: Provide only the value of recorded Ratio for COC(=O)[C@H](OC(C)=O)[C@H]1[C@]2(C)C[C@]3(O)[C@@](O)([C@@H](OC(=O)C(C)C)[C@]45OC6(C)O[C@H]([C@H](O)[C@]78C[C@@]74[C@@H](OC(C)=O)C(=O)O[C@H]8c4ccoc4)[C@]5(O6)[C@]13C)[C@H]2OC(C)=O
Reply text: 0.1

Inquiry: Provide only the value of recorded Ratio for COC(=O)[C@H](OC(C)=O)[C@H]1[C@]2(C)C[C@]3(O)[C@@](O)([C@@H](OC(=O)C(C)C)[C@]45OC6(C)O[C@H]([C@H](OC(C)=O)[C@]78C[C@@]74[C@@H](OC(C)=O)C(=O)O[C@H]8c4ccoc4)[C@]5(O6)[C@]13C)[C@H]2OC(C)=O
Reply text: 0.62

Inquiry: Provide only the value of recorded Ratio for COC(=O)C[C@H]1[C@]2(C)C[C@]3(O)[C@@](O)([C@@H](OC(=O)C(C)C)[C@]45OC6(C)O[C@H]([C@H](O)[C@]78C[C@@]74[C@@H](OC(C)=O)C(=O)O[C@H]8c4ccoc4)[C@]5(O6)[C@]13C)[C@H]2OC(C)=O
Reply text: 0.17

// for each molecule below, give its Ratio
1. COC(=O)C[C@H]1[C@]2(C)C[C@]3(O)[C@@](OC(C)=O)([C@H]4OC5(C)C[C@@H]6[C@](C)([C@@H](OC(C)=O)c7ccoc7)[C@@H](OC(C)=O)[C@@H](OC(C)=O)[C@@](O)([C@@]64O5)[C@]13COC(C)=O)[C@H]2OC(C)=O
2. CCC12C[C@@H]3[C@](C)([C@@H](OC(C)=O)c4ccoc4)[C@@H](OC(C)=O)[C@@H](OC(C)=O)[C@@]4(O)[C@]3(O1)[C@H](O2)[C@@]1(OC(C)=O)[C@@H](OC(C)=O)[C@@]2(C)C[C@@]1(O)[C@@]4(C)[C@H]2CC(=O)OC
3. CC(=O)O[C@@H]1[C@H](OC(C)=O)[C@@](C)([C@@H](OC(C)=O)c2ccoc2)[C@H]2CC3(C(C)C)O[C@@H]4[C@@]5(OC(C)=O)[C@@H](OC(C)=O)[C@@]6(C)C[C@@]5(O)[C@]5(COC(=O)C[C@@H]65)[C@]1(O)[C@@]24O3

Reply text:
[0.8, 0.75, 0.3]
